- target_or_system: T1, O6-bN
- T1 chain: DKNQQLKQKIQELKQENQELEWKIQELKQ
- assay_comment: two-hybrid library CCNG1;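 also: natural log of median RNA to DNA barcode read ratio; higher means stronger binding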
endpoint: interaction score

A. DEIQQLEQKIQELKQKNQELKWKNQELKQ [O12-bN]
B. DKIQQLKQEIQELEQENQELEWENQELEQ [O11-bN]
C. DKIQQLKQKNQELKQEIQELEWKNQELKQ [O16-bN]
Put the items above in order of decreasing interaction score. Order the labels as requested and give them as your answer.
C, A, B
